measured-on: Sodium- and chloride-dependent GABA transporter 1 (Mus musculus)
protocol: Inhibition of NO711 binding to mouse GAT1 expressed in HEK293 cell membranes assessed as residual binding at 1 uM preincubated for 4 hrs followed by NO711 addition and measured after 40 mins by LC-ESI-MS/MS analysis relative to control
For each of the compounds below, state its Activity.
Use % as the unit, but write only the number.

Item: O=Cc1ccccc1-c1cc(F)ccc1F Test system: Sodium- and chloride-dependent GABA transporter 1 (Mus musculus) Read-out: Activity Value: ?
98

Item: COc1cccc(F)c1-c1ccccc1C=O Test system: Sodium- and chloride-dependent GABA transporter 1 (Mus musculus) Read-out: Activity Value: ?
112

Item: O=Cc1ccc(Br)o1 Test system: Sodium- and chloride-dependent GABA transporter 1 (Mus musculus) Read-out: Activity Value: ?
127

Item: O=Cc1cnc(N2CCCCC2)nc1 Test system: Sodium- and chloride-dependent GABA transporter 1 (Mus musculus) Read-out: Activity Value: ?
108

Item: O=C(O)[C@H]1CNC[C@@H](CCN/N=C/c2ccc(-c3cc(C(F)(F)F)ccc3Cl)o2)C1 (racemic) Test system: Sodium- and chloride-dependent GABA transporter 1 (Mus musculus) Read-out: Activity Value: ?
54

Item: Nc1ncc(-c2ccccc2/C=N/NC[C@@H]2CNC[C@H](C(=O)O)C2)cn1 (racemic) Test system: Sodium- and chloride-dependent GABA transporter 1 (Mus musculus) Read-out: Activity Value: ?
93

Item: O=C(O)[C@H]1CNC[C@@H](CN/N=C/c2ccc3ccccc3n2)C1 (racemic) Test system: Sodium- and chloride-dependent GABA transporter 1 (Mus musculus) Read-out: Activity Value: ?
81

Item: O=C(O)[C@H]1CNC[C@@H](CN/N=C/c2ccccc2-c2cc(F)ccc2F)C1 (racemic) Test system: Sodium- and chloride-dependent GABA transporter 1 (Mus musculus) Read-out: Activity Value: ?
73

Item: O=C(O)[C@H]1CNC[C@@H](CCN/N=C/c2ccc(-c3ccc(Cl)cc3)o2)C1 (racemic) Test system: Sodium- and chloride-dependent GABA transporter 1 (Mus musculus) Read-out: Activity Value: ?
62

Item: O=Cc1sccc1-c1ccccc1 Test system: Sodium- and chloride-dependent GABA transporter 1 (Mus musculus) Read-out: Activity Value: ?
113

Item: O=C(O)[C@H]1CNC[C@@H](CN/N=C/c2ccc(-c3ccccc3)s2)C1 (racemic) Test system: Sodium- and chloride-dependent GABA transporter 1 (Mus musculus) Read-out: Activity Value: ?
55

Item: O=Cc1cnc(-c2ccco2)nc1 Test system: Sodium- and chloride-dependent GABA transporter 1 (Mus musculus) Read-out: Activity Value: ?
118

Item: COc1ccc(F)cc1-c1ccccc1C=O Test system: Sodium- and chloride-dependent GABA transporter 1 (Mus musculus) Read-out: Activity Value: ?
108

Item: O=Cc1ccc(-c2ccc(C(F)(F)F)cc2Cl)o1 Test system: Sodium- and chloride-dependent GABA transporter 1 (Mus musculus) Read-out: Activity Value: ?
98

Item: O=Cc1ccc(-c2cccc(Cl)c2)o1 Test system: Sodium- and chloride-dependent GABA transporter 1 (Mus musculus) Read-out: Activity Value: ?
103

Item: O=C(O)[C@H]1CNC[C@@H](CN/N=C/c2ccc(-c3ccccc3Cl)o2)C1 (racemic) Test system: Sodium- and chloride-dependent GABA transporter 1 (Mus musculus) Read-out: Activity Value: ?
48

Item: Cc1ccccc1-c1ccsc1C=O Test system: Sodium- and chloride-dependent GABA transporter 1 (Mus musculus) Read-out: Activity Value: ?
93

Item: O=C(O)[C@H]1CNC[C@@H](CN/N=C/c2cnc(N3CCCCC3)nc2)C1 (racemic) Test system: Sodium- and chloride-dependent GABA transporter 1 (Mus musculus) Read-out: Activity Value: ?
69

Item: O=Cc1ccc(-c2ccn[nH]2)o1 Test system: Sodium- and chloride-dependent GABA transporter 1 (Mus musculus) Read-out: Activity Value: ?
93

Item: O=C(O)[C@H]1CNC[C@@H](CCN/N=C/c2ccc(-c3ccn[nH]3)o2)C1 (racemic) Test system: Sodium- and chloride-dependent GABA transporter 1 (Mus musculus) Read-out: Activity Value: ?
72

Item: O=C(O)[C@H]1CNC[C@@H](CCN/N=C/c2ccc(C#Cc3ccccc3)s2)C1 (racemic) Test system: Sodium- and chloride-dependent GABA transporter 1 (Mus musculus) Read-out: Activity Value: ?
71

Item: O=Cc1cnc(-c2cccc3ccccc23)nc1 Test system: Sodium- and chloride-dependent GABA transporter 1 (Mus musculus) Read-out: Activity Value: ?
124

Item: O=C(O)[C@H]1CNC[C@@H](CN/N=C/c2ccc(-c3ccc(Br)cc3)o2)C1 (racemic) Test system: Sodium- and chloride-dependent GABA transporter 1 (Mus musculus) Read-out: Activity Value: ?
59

Item: O=C(O)[C@H]1CNC[C@@H](CN/N=C/c2cnc(-c3ccco3)nc2)C1 (racemic) Test system: Sodium- and chloride-dependent GABA transporter 1 (Mus musculus) Read-out: Activity Value: ?
73

Item: O=C(O)[C@H]1CNC[C@@H](CN/N=C/c2ccc(-c3ccc(C(F)(F)F)cc3Cl)o2)C1 (racemic) Test system: Sodium- and chloride-dependent GABA transporter 1 (Mus musculus) Read-out: Activity Value: ?
40

Item: O=C(O)[C@H]1CNC[C@@H](CCN/N=C/c2ccc(-c3ccc(Cl)cc3Cl)o2)C1 (racemic) Test system: Sodium- and chloride-dependent GABA transporter 1 (Mus musculus) Read-out: Activity Value: ?
41

Item: O=C(O)[C@H]1CNC[C@@H](CN/N=C/c2cccc(-c3ccc(F)cc3)c2)C1 (racemic) Test system: Sodium- and chloride-dependent GABA transporter 1 (Mus musculus) Read-out: Activity Value: ?
50

Item: COc1cc(/C=N/NCC[C@@H]2CNC[C@H](C(=O)O)C2)cc(OC)c1O (racemic) Test system: Sodium- and chloride-dependent GABA transporter 1 (Mus musculus) Read-out: Activity Value: ?
62

Item: O=C(O)[C@H]1CNC[C@@H](CN/N=C/c2cncnc2)C1 (racemic) Test system: Sodium- and chloride-dependent GABA transporter 1 (Mus musculus) Read-out: Activity Value: ?
64

Item: O=Cc1cccc(-c2ccc(Cl)cc2)c1 Test system: Sodium- and chloride-dependent GABA transporter 1 (Mus musculus) Read-out: Activity Value: ?
108

Item: O=C(O)[C@H]1CNC[C@@H](CN/N=C/c2ccc(I)o2)C1 (racemic) Test system: Sodium- and chloride-dependent GABA transporter 1 (Mus musculus) Read-out: Activity Value: ?
69

Item: O=C(O)[C@H]1CNC[C@@H](CN/N=C/c2ccc(-c3ccc(Cl)cc3)s2)C1 (racemic) Test system: Sodium- and chloride-dependent GABA transporter 1 (Mus musculus) Read-out: Activity Value: ?
75

Item: O=C(O)[C@H]1CNC[C@@H](CN/N=C/c2cnc(NCc3ccccc3)nc2)C1 (racemic) Test system: Sodium- and chloride-dependent GABA transporter 1 (Mus musculus) Read-out: Activity Value: ?
60

----------
measured-on: Sodium- and chloride-dependent GABA transporter 1 (Mus musculus) (UniProt P31648)
protocol: Inhibition of NO711 binding to mouse GAT1 expressed in HEK293 cell membranes assessed as residual binding at 1 uM preincubated for 4 hrs followed by NO711 addition and measured after 40 mins by LC-ESI-MS/MS analysis relative to control
recorded-metric: Activity

// lookup Activity for O=C(O)[C@H]1CNC[C@@H](CN/N=C/c2ccc(-c3ccn[nH]3)o2)C1 (racemic)
81%

// lookup Activity for O=C(O)[C@H]1CNC[C@H](CCN/N=C/c2ccc(C#Cc3ccccc3)s2)C1 (racemic)
> 50%

// lookup Activity for Cc1ccc(-c2ccsc2/C=N/NC[C@@H]2CNC[C@H](C(=O)O)C2)c(C)c1 (racemic)
80%
